Tested on: HT-29 human carcinoma cells
PROTOCOL_DETAILS: in vitro clonogenic assay (cloning efficiency) with HT-29 cells, 72 h drug exposure
Assay type: cell-based
ASSAY_SETUP: Homo sapiens, HT-29, 72 h, 5-FU with 5-ETH 150 μM; read-out: IC50 for 5-fluorouracil (50% reduction of cloning efficiency)

{"CHEMICAL_SMILES": "O=c1[nH]cc(F)c(=O)[nH]1", "MEASUREMENT_UNITS": "nM", "IC50": 350}
